Test system: Lefty1
Assay: Lefty1 binders on small-molecule microarrays, primary screen, biochemical, small-molecule microarray, 635/667 nm fluorescence (AID 1139)
Settings: small-molecule microarray binding, fluorescence 635/667; higher = more signal
Can you tell me composite z-score for the items I'm about to list?
One number for each entry.

Record excerpt, results attached:
1. CN(C)C(=O)[C@]1(CCC(=O)OC(C)(C)C)N=C(c2ccc(OCCCO)cc2)O[C@@H]1c1ccccc1; -0.781
2. C=C(COC)/C(=C/C[C@@H](OC(=O)c1ccncc1)c1cccc(OCCO)c1)c1cnc2ccccc2c1; 1.64
3. O=C1O[C@@H](c2ccccc2)[C@@H](c2ccccc2)N2[C@@H](c3ccc(O)cc3)[C@]3(C(=O)Nc4ccc(C#CCCO)cc43)[C@@H](C(=O)NC[C@H](O)c3ccccc3)[C@H]12; 0.0328

Okay, now this compound:
Dear colleague, I am looking for the recorded composite z-score of the following compound: `C=CC[C@H](OC(=O)Nc1ccc(OC)cc1)c1ccc(O)c2ccccc12`
0.907

Sourced from PubChem BioAssay
